Tested on: J774
Experiment: Cytotoxicity against mouse J774 cells after 72 hrs by MTT assay
Type: functional, cell-based
Details: J774, 72 h
Recorded IC50 by entry
Assay Metric: IC50 (µg/mL)

Compound: C/C=C(/C)C(=O)O[C@H]1[C@H](OC(C)=O)[C@]2(CO)[C@H](O)C[C@]3(C)C(=CC[C@@H]4[C@@]5(C)CC[C@H](O[C@@H]6O[C@H](C(=O)O)[C@@H](O[C@@H]7O[C@H](CO)[C@@H](O)[C@H](O)[C@H]7O)[C@H](O)[C@H]6O[C@@H]6OC[C@@H](O)[C@H](O)[C@H]6O)C(C)(C)[C@@H]5CC[C@]43C)[C@@H]2CC1(C)C [PAVIOSIDEB]
Assay Metric: IC50
Result Value: 5.1
//
Compound: C/C=C(\C)C(=O)O[C@H]1[C@H](OC(C)=O)[C@]2(CO)[C@H](O)C[C@]3(C)C(=CC[C@@H]4[C@@]5(C)CC[C@H](O[C@@H]6O[C@H](C(=O)O)[C@@H](O[C@@H]7O[C@H](CO)[C@H](O)[C@H](O)[C@H]7O)[C@H](O)[C@H]6O[C@@H]6OC[C@@H](O)[C@H](O)[C@H]6O)C(C)(C)[C@@H]5CC[C@]43C)[C@@H]2CC1(C)C [PAVIOSIDEC]
Assay Metric: IC50
Result Value: 5.7
//
Compound: C/C=C(\C)C(=O)O[C@H]1[C@H](OC(C)=O)[C@]2(CO)[C@H](O)C[C@]3(C)C(=CC[C@@H]4[C@@]5(C)CC[C@H](O[C@@H]6O[C@H](C(=O)O)[C@@H](O[C@@H]7O[C@H](CO)[C@@H](O)[C@H](O)[C@H]7O)[C@H](O)[C@H]6O[C@@H]6OC[C@@H](O)[C@H](O)[C@H]6O)C(C)(C)[C@@H]5CC[C@]43C)[C@@H]2CC1(C)C [PAVIOSIDEA]
Assay Metric: IC50
Result Value: 5.7
//
Compound: C/C=C(/C)C(=O)O[C@H]1[C@H](OC(C)=O)[C@]2(CO)[C@H](O)C[C@]3(C)C(=CC[C@@H]4[C@@]5(C)CC[C@H](O[C@@H]6O[C@H](C(=O)O)[C@@H](O[C@@H]7OC[C@@H](O)[C@H](O)[C@H]7O)[C@H](O)[C@H]6O[C@@H]6OC[C@@H](O)[C@H](O)[C@H]6O)[C@](C)(CO)[C@@H]5CC[C@]43C)[C@@H]2CC1(C)C [PAVIOSIDEH]
Assay Metric: IC50
Result Value: 3.5
//
Compound: C/C=C(/C)C(=O)O[C@H]1[C@H](OC(C)=O)[C@]2(CO)[C@H](O)C[C@]3(C)C(=CC[C@@H]4[C@@]5(C)CC[C@H](O[C@@H]6O[C@H](C(=O)O)[C@@H](O[C@@H]7O[C@H](CO)[C@H](O)[C@H](O)[C@H]7O)[C@H](O)[C@H]6O[C@@H]6OC[C@@H](O)[C@H](O)[C@H]6O)C(C)(C)[C@@H]5CC[C@]43C)[C@@H]2CC1(C)C [PAVIOSIDED]
Assay Metric: IC50
Result Value: 6.6
//
Compound: C/C=C(\C)C(=O)O[C@H]1[C@H](OC(C)=O)[C@]2(CO)[C@H](O)C[C@]3(C)C(=CC[C@@H]4[C@@]5(C)CC[C@H](O[C@@H]6O[C@H](C(=O)O)[C@@H](O[C@@H]7OC[C@@H](O)[C@H](O)[C@H]7O)[C@H](O)[C@H]6O[C@@H]6OC[C@@H](O)[C@H](O)[C@H]6O)[C@](C)(CO)[C@@H]5CC[C@]43C)[C@@H]2CC1(C)C [PAVIOSIDEG]
Assay Metric: IC50
Result Value: 3.6
//
Compound: C/C=C(\C)C(=O)O[C@H]1[C@H](OC(C)=O)[C@]2(CO)[C@H](O)C[C@]3(C)C(=CC[C@@H]4[C@@]5(C)CC[C@H](O[C@@H]6O[C@H](C(=O)O)[C@@H](O[C@@H]7OC[C@@H](O)[C@H](O)[C@H]7O)[C@H](O)[C@H]6O[C@@H]6OC[C@@H](O)[C@H](O)[C@H]6O)C(C)(C)[C@@H]5CC[C@]43C)[C@@H]2CC1(C)C [PAVIOSIDEE]
Assay Metric: IC50
Result Value: 2.9
//
Compound: C/C=C(/C)C(=O)O[C@H]1[C@H](OC(C)=O)[C@]2(CO)[C@H](O)C[C@]3(C)C(=CC[C@@H]4[C@@]5(C)CC[C@H](O[C@@H]6O[C@H](C(=O)O)[C@@H](O[C@@H]7OC[C@@H](O)[C@H](O)[C@H]7O)[C@H](O)[C@H]6O[C@@H]6OC[C@@H](O)[C@H](O)[C@H]6O)C(C)(C)[C@@H]5CC[C@]43C)[C@@H]2CC1(C)C [PAVIOSIDEF]
Assay Metric: IC50
Result Value: 2.8
